biological target: SHP2-C SH2; assay: SH2 binding enrichment of the phosphorylated peptide, bacterial display (enrichment ratio); higher = better substrate or ligand; peptides without Tyr show the background;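 further: peptide library displayed on the E. coli surface as eCPX fusions, selected cells deep-sequenced, score is each peptide's frequency after selection divided by its frequency in the input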
assay-endpoint: SH2 binding enrichment

sequence-input: HQKKPYCHAHN [NRAP_Y53]
result: 1.79

Req: Consider the sequence shown here: FVSIVYNDFGE [TSC2_Y1650_S1653F] What is its recorded SH2 binding enrichment?
Resp: 1.68

Req: Consider the sequence shown here: DPEGAYTTRGG [EPHA3_Y779_A777G] What is its recorded SH2 binding enrichment?
Resp: 0.911

* * *

The entries below come with measured phosphorylation enrichment values attached.
system: c-Abl (mouse); test: phosphorylation enrichment, bacterial display (enrichment ratio); higher = better substrate or ligand; peptides without Tyr show the background
Respond numerically, and do not add a unit to the figure.

Some sequences with recorded phosphorylation enrichment:
sequence-input: RDGDRYFKGIV [DCX_Y64_N60D]
result-number: 0.485

sequence-input: EPSVDCCVVKI [CAD_Y735_Y735C]
result-number: 0.816

sequence-input: GGYTCCCDGKK [PROS1_Y266_Y266C]
result-number: 0.792

sequence-input: HQEPVYSVAFS [TBL1X_Y509]
result-number: 30.7

sequence-input: DVCKNYAEAKD [ALB_Y343]
result-number: 0.804

sequence-input: ISKKIYDTIHD [CTNNA3_Y614]
result-number: 0.452

sequence-input: RFLERYIYNRE [HLA-DPB1_Y57]
result-number: 0.533

sequence-input: EPYEVYRIVPE [IRF8_Y110_K108E]
result-number: 1.25

Req: GET /values?readout=phosphorylation enrichment&system=c-Abl (mouse)&item= CTTIHYNYMCN [TP53_Y234]
Resp: 0.471

Req: GET /values?readout=phosphorylation enrichment&system=c-Abl (mouse)&item= CQKRKYIEIDS [SDAD1_Y580_S575C]
Resp: 0.446

Req: GET /values?readout=phosphorylation enrichment&system=c-Abl (mouse)&item= AKKKMYSCKTK [AGXT_Y231_R233C];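 further: frequency after pTyr selection over input frequency; kinase dosed for 20-30% of maximal phosphorylation in three min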
Resp: 1.95

Req: GET /values?readout=phosphorylation enrichment&system=c-Abl (mouse)&item= AHLLQYNHQVK [LGALS3_Y221_R224Q];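 further: frequency after pTyr selection over input frequency; kinase dosed for 20-30% of maximal phosphorylation in three min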
Resp: 0.474

Req: GET /values?readout=phosphorylation enrichment&system=c-Abl (mouse)&item= GLNKDYRMVVN [HINT1_Y94_G93D];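 further: frequency after pTyr selection over input frequency; kinase dosed for 20-30% of maximal phosphorylation in three min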
Resp: 0.447

Req: GET /values?readout=phosphorylation enrichment&system=c-Abl (mouse)&item= ITKQEYDEAGP [ACTA1_Y364];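 further: 11-residue human phosphosite peptides and single-mutation variants displayed on the E. coli surface, counted by deep sequencing, each peptide's frequency after selection divided by its frequency in the unselected input library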;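 further: frequency after pTyr selection over input frequency; kinase dosed for 20-30% of maximal phosphorylation in three min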
Resp: 0.679
